FYI, the data here is from patent US20130029970A1.

# IC50 values compiled below
Molecular target: recombinant human cannabinoid receptor CB1 (Homo sapiens, UniProt P21554)
Construct: (cDNA clone) CNR01L000
Sequence (P21554 whole entry): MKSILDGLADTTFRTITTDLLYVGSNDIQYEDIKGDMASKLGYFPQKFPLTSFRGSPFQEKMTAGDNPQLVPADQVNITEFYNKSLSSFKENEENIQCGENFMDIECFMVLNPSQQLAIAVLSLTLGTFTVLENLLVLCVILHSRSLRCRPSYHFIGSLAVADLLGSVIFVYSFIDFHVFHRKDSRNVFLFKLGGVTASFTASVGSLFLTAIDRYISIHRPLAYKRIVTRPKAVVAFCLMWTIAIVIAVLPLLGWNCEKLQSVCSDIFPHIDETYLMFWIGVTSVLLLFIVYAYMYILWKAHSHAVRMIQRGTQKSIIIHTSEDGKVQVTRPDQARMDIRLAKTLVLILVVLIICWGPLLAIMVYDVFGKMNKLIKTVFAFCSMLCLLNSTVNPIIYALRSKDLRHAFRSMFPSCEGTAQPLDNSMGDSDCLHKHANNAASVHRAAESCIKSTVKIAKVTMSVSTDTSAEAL
Test: Cannabinoid receptor radioligand binding assay, [3H]-CP 55,940 displacement, hCB1

COc1ccc(C(=O)c2cc3cc(C)n(CCCCNS(C)(=O)=O)c3s2)cc1 : 1 to 10 µM
Cc1cc2cc(C(=O)c3cccc(Cl)c3Cl)sc2n1CCN1CCOCC1 : 0.1 to 1 µM
COc1ccc(Cn2c(C)cc3cc(C(=O)c4ccc(OC)cc4)sc32)cc1 : 1 to 10 µM

Ask: Please look up its IC50: Cc1cc2cc(C(=O)c3ccccc3N)sc2n1CCN1CCOCC1
Reply: > 10 µM

Ask: Please look up its IC50: CCc1ccc(C(=O)c2cc3cc(C)n(CCN4CCOCC4)c3s2)cc1
Reply: 1 to 10 µM

Ask: Please look up its IC50: COc1ccc(C(=O)c2cc3cc(C)n(CC4CCOCC4)c3s2)cc1
Reply: 1 to 10 µM

Ask: Please look up its IC50: Cc1cc2cc(C(=O)c3ccc(C(F)(F)F)cc3)sc2n1CCN1CCOCC1
Reply: > 10 µM

Ask: Please look up its IC50: Cc1cc2cc(C(=O)c3ccc(OC(C)C)cc3)sc2n1CCN1CCOCC1
Reply: 1 to 10 µM

Ask: Please look up its IC50: Cc1cc2cc(C(=O)c3ccc(F)cc3Cl)sc2n1CCN1CCOCC1
Reply: 1 to 10 µM

Ask: Please look up its IC50: CSc1ccc(C(=O)c2cc3cc(C)n(CCN4CCOCC4)c3s2)cc1
Reply: 1 to 10 µM

* * *

Biological target: human CB2 (hCB2) (Homo sapiens)
Construct: (cDNA clone) CNR0200000
Sequence (P34972 whole entry): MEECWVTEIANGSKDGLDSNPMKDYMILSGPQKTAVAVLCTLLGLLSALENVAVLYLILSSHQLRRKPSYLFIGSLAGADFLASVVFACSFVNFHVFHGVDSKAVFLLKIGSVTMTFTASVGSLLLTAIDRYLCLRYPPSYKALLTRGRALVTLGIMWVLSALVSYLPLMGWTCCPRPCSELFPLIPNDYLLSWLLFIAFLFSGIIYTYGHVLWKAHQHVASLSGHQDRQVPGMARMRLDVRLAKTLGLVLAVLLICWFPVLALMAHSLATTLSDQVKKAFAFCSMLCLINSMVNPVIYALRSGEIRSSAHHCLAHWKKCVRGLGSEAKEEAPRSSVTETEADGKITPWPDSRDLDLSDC
Test: 35S GTPγS binding assay, hCB2 agonist
Type: biochemical
# EC50 values compiled below

The cases that follow already have their EC50 on record.
Cc1cc2cc(C(=O)c3ccc(F)cc3Cl)sc2n1CCN1CCOCC1 : < 100 nM
CCOC(=O)CCn1c(C)cc2cc(C(=O)c3ccc(OC)cc3)sc21 : 100 to 1000 nM
Cc1ccc(C(=O)c2cc3cc(C)n(CCN4CCOCC4)c3s2)c(Cl)c1 : < 100 nM
COc1ccc(C(=O)c2cc3cc(C)n(CCCN(C)S(C)(=O)=O)c3s2)cc1 : 100 to 1000 nM
Cc1cc2cc(C(=O)c3ccc(N(C)C)cc3)sc2n1CCN1CCOCC1 : 100 to 1000 nM

Ask: # returns recorded EC50 (system: human CB2 (hCB2) (Homo sapiens)) for Cc1cc2cc(C(=O)c3ccc(Cl)c(Cl)c3)sc2n1CCN1CCOCC1
Reply: 1000 to 10000 nM

Ask: # returns recorded EC50 (system: human CB2 (hCB2) (Homo sapiens)) for COc1ccc(Cn2c(C)cc3cc(C(=O)c4ccc(OC)cc4)sc32)cc1
Reply: 100 to 1000 nM

Ask: # returns recorded EC50 (system: human CB2 (hCB2) (Homo sapiens)) for COc1ccc(C(=O)c2cc3cc(C)n(CCCNS(=O)(=O)C(F)(F)F)c3s2)cc1
Reply: 1000 to 10000 nM

Ask: # returns recorded EC50 (system: human CB2 (hCB2) (Homo sapiens)) for Cc1ccc(C(=O)c2cc3cc(C)n(CCN4CCOCC4)c3s2)c(F)c1
Reply: < 100 nM
